molecular target: human melanocortin-4 receptor (human, UniProt P32245 1-332); assay: cell-based or functional assay
Sequence (P32245 whole entry): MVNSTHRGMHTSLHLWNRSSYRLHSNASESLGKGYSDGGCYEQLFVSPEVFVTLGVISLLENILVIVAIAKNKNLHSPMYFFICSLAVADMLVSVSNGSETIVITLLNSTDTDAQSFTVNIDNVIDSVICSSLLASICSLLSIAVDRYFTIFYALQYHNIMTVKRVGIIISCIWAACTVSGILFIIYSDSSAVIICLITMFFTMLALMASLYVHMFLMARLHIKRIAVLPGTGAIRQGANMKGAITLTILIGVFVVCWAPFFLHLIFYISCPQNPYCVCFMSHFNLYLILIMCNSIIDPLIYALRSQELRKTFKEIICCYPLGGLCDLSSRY
Positions of bridges follow the written chain, without caps; N, C: chain ends. Non-standard residues stand in square brackets, D forms with d. dPhe(3-Cl) = N[C@H](Cc1cccc(Cl)c1)C(=O)O; dPhe(2-F) = N[C@H](Cc1ccccc1F)C(=O)O; Orn = NCCC[C@H](N)C(=O)O
readout.label: Intrinsic Activity, cAMP, 0.1 ng/mL Doxycycline (%)
Quick note: give the figure in %, leave out the unit.

Worked examples follow.
binder	assay.result
Ac-REK[dPhe(3-Cl)]RW[Orn]-NH2 (lactam 2-7; SMILES CC(=O)N[C@@H](CCCNC(=N)N)C(=O)N[C@H]1CCC(=O)NCCC[C@@H](C(N)=O)NC(=O)[C@H](Cc2c[nH]c3ccccc23)NC(=O)[C@H](CCCNC(=N)N)NC(=O)[C@@H](Cc2cccc(Cl)c2)NC(=O)[C@H](CCCCN)NC1=O, also called No. 100) [Ac-Arg-cyclo(Glu-Lys-D-Phe(3-Cl)-Arg-Trp-Orn)-NH2]	27
Ac-R[Orn]P[dPhe(2-F)]RWE-NH2 (lactam 2-7; SMILES CC(=O)N[C@@H](CCCNC(=N)N)C(=O)N[C@H]1CCCNC(=O)CC[C@@H](C(N)=O)NC(=O)[C@H](Cc2c[nH]c3ccccc23)NC(=O)[C@H](CCCNC(=N)N)NC(=O)[C@@H](Cc2ccccc2F)NC(=O)[C@@H]2CCCN2C1=O) [Ac-Arg-cyclo(Orn-Pro-D-Phe(2-F)-Arg-Trp-Glu)-NH2]	35

Then this binder:
[ask] Request the reported Intrinsic Activity, cAMP, 0.1 ng/mL Doxycycline associated with XDQXRWK (N-terminal Ac; D-Arg 1; D-Phe(3,4-diF) 4; lactam Asp 2-Lys 7; C-terminal NH2, also called No. 78) [Ac-D-Arg-cyclo(Asp-Gln-D-Phe(3,4-diF)-Arg-Trp-Lys)-NH2]
[reply] 48
